Test system: SNB-75 CNS
Assay: NCI-60 one-dose screen, 48 h
Conditions: 10 µM unless noted
Description: Growth inhibition of the SNB-75 human tumor cell line is measured as a screen for anti-cancer activity. Cells are grown in 96 well plates and exposed to the test compound for 48 hours. Compounds are tested at a single concentration, which is 10^-5 M for most compounds. The reported endpoint is percent growth (GI% or GIPRCNT), where numbers from 0 - 100% represent growth inhibition, and numbers from -100% - 0 represent cell death. For example, a value of 40 represents 60% growth inhibition. […]
The panel holds about 83,000 compounds, 20% with a hit somewhere; the sample as a whole holds those more often. Active and inactive are the calls of the source. Rule for the calls: active = growth percent below 10; inactive = the rest.
Outcome codes: true (1) = active, false (0) = inactive

INSERT INTO measurements (compound, discrete_label) VALUES
  ('Cc1ccc2cccc(OC(=O)Nc3cccc(C(F)(F)F)c3)c2n1', 'false (0)'),
  ('O=C1C(=O)c2cccnc2-c2ncccc21', 'true (1)'),
  ('Nc1ccc(-c2ccc(N)c(S(=O)(=O)O)c2)cc1S(=O)(=O)O', 'false (0)'),
  ('O=C(/C=C/c1ccccc1)c1ccccc1O', 'false (0)'),
  ('COc1cc(/C=C2\SC(=S)N(/C=C/c3nc4ccccc4[nH]c3=O)C2=O)cc(OC)c1OC', 'false (0)'),
  ('CN(C)CCN(C)CC(C)(C)C(=O)/C=C/c1ccc(Cl)c(Cl)c1', 'true (1)'),
  ('Cc1ccc2c(c1)sc(-c1ccc(N(C)C)cc1)[n+]2C', 'false (0)'),
  ('O=Nc1ccc2ccccc2c1O', 'false (0)'),
  ('COc1cc(-c2ccc(-[n+]3nc(-c4ccc([N+](=O)[O-])cc4)nn3-c3ccc([N+](=O)[O-])cc3)c(OC)c2)ccc1-[n+]1nc(-c2ccc([N+](=O)[O-])cc2)nn1-c1ccc([N+](=O)[O-])cc1', 'true (1)'),
  ('N#CC(I)CS(=O)(=O)c1ccccc1 (configuration not stated)', 'false (0)'),
  ('Cc1cc(=O)oc2cc(O)cc(O)c12', 'false (0)'),
  ('CC1=CC(=NC(=O)CBr)C=C/C1=N\S(=O)(=O)c1ccccc1', 'false (0)'),
  ('Cc1nc([N+](=O)[O-])c(Sc2nncc(-c3ccccc3)n2)n1C', 'false (0)'),
  ('COC1CC(C)C(OC)c2cc(O)cc(c2O)NC(=O)/C(C)=C/C=C\C(C)C(OC(N)=O)/C(C)=C\C(C)C1OC (configuration not stated)', 'false (0)'),
  ('COc1cc(NCc2ccc3nc(N)nc(N)c3c2C)cc(OC)c1OC (tested in a mixture with another compound)', 'false (0)'),
  ('CC(C)(C)CC(C)(C)c1ccc(OCCOCCSC(=N)N)cc1', 'false (0)'),
  ('NNc1ccc(Cl)cc1Cl', 'false (0)'),
  ('CCCCCCCCCCCCCCCCSC(=NCC)NCC', 'false (0)'),
  ('CC(C)N=C(N)/N=C(\N)Nc1ccc2ccc3ccccc3c2c1', 'true (1)'),
  ('CCCCCCCCCCCCCCCc1ccc(C(=O)C[n+]2ccccc2)cc1', 'true (1)'),
  ('COc1cc2c(c(OC)c1OC)-c1ccc(NCc3ccccc3)c(=O)cc1[C@@H](NC(C)=O)CC2', 'false (0)'),
  ('CCNc1nnnn1CC', 'false (0)');

Where do these numbers come from? They come from PubChem BioAssay (NCI).
